Reference source: patent US20120095193A1

Target: T1, human ADAMTS5 (human, UniProt Q9UNA0 262-622, limits assumed)
T1 construct: Octet and ELISA used 'recombinant human ADAMTS5'; also called recombinant human ADAMTS5; ADAMTS5 (R&D Systems 2198-AD)
T1 sequence: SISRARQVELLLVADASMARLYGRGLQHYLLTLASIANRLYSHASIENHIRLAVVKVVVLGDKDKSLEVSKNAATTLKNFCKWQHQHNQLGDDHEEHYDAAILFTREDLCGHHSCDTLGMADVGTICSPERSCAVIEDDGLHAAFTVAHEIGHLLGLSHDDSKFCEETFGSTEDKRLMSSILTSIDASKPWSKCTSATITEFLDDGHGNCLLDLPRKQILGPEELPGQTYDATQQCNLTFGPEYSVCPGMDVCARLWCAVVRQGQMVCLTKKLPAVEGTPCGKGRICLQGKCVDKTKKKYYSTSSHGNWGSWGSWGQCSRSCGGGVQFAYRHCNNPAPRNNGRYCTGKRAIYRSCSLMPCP
Experiment: Biacore, mAb from culture supernatant captured on anti-human IgG, ADAMTS5 (R&D 2198-AD) at 64 nM, 1:1 fit
value-type: kon (M⁻¹ s⁻¹)
Use M⁻¹ s⁻¹ as the unit, but write only the number.

Before answering, review these 2 worked examples.
• BPC1638 (antibody, human IgG1, kappa, V domains shown, Humanized, human gamma 1 / kappa; also called 7B4 H4L0) VH: EVQLVESGGGLVQPGGSLRLSCAASGFTSSDAWMDWVRQAPGKGLEWVAEIRNKANNHARHYAESVKGRFTISRDDAKNSLYLQMNSLRAEDTAVYYCTRTYYYGSSYGYCDVWGQGTLVTVSS VL: DIQMTQSPSSLSASVGDRVTITCRTSENIYSYLAWYQQKPGKAPKLLIYNAKTLAEGVPSRFSGSGSGTDFTLTISSLQPEDFATYYCQHHYGTPWTFGQGTKLEIKR = 875000
• BPC1634 (antibody, human IgG1, kappa, V domains shown, Humanized, human gamma 1 / kappa; also called 7B4 H0L0; Humanized 7B4.1E11 H0L0) VH: EVQLVESGGGLVQPGGSLRLSCAASGFTFSDAWMDWVRQAPGKGLEWVAEIRNKANNHARHYAESVKGRFTISRDNAKNSLYLQMNSLRAEDTAVYYCARTYYYGSSYGYCDVWGQGTLVTVSS VL: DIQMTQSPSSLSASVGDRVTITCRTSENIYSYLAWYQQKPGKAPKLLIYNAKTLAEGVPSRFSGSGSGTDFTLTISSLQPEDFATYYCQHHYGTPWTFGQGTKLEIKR = 554000

Attention now shifts to the item below.
Query: What measured kon goes with BPC1649 (antibody, human IgG1, kappa, V domains shown, Humanized, human gamma 1 / kappa; also called 7B4 H1L2) VH: EVQLVESGGGLVQPGGSLRLSCAASGFTFSDAWMDWVRQAPGKGLEWVAEIRNKANNHARHYAESVKGRFTISRDNAKNSLYLQMNSLRAEDTAVYYCTRTYYYGSSYGYCDVWGQGTLVTVSS VL: DIQMTQSPSSLSASVGDRVTITCRTSENIYSYLAWYQQKPGKAPQLLVYNAKTLAEGVPSRFSGSGSGTDFTLTISSLQPEDFATYYCQHHYGTPWTFGQGTKLEIKR ?
Reply: 1.02e+06
